Source: ChEMBL document CHEMBL1955745

- Assay summary: Thermodynamic solubility of the compound in phosphate buffer at pH 7.4 at 1 mg after 10 mins by HPLC -UV analysis
- Assay type: physicochemical
- Settings: read-out: Therm_solubility
Below is a list of entries, each paired with its recorded solubility thermodynamic at 10 min value.
Form entry: value (µg/mL) — number only.

Consider the reported solubility thermodynamic at 10 min for these compounds:
{"columns": ["Compound", "Observed result"],
 "data": [
  ["CC(=O)N[C@H](Cc1ccccc1)C(=O)OC[C@H](Cc1ccccc1)NC(=O)c1ccccc1", 207],
  ["O=C(N[C@H](COC(=O)[C@H](Cc1ccccc1)NC(=O)c1ccccc1OCc1ccccc1)Cc1ccccc1)c1ccccc1", 26.3],
  ["O=C(Cc1ccc(O)cc1)N[C@@H](Cc1ccccc1)C(=O)OC[C@H](Cc1ccccc1)NC(=O)c1ccccc1", 109]
]}

IN: Give the measured solubility thermodynamic at 10 min of O=C(Cc1ccccc1O)N[C@H](Cc1ccccc1)C(=O)OC[C@H](Cc1ccccc1)NC(=O)c1ccccc1 .
OUT: 524

IN: And the next one, O=C(Cc1ccccc1O)N[C@@H](Cc1ccccc1)C(=O)OC[C@H](Cc1ccccc1)NC(=O)c1ccccc1 ?
OUT: 349

IN: And the next one, O=C(N[C@H](COC(=O)[C@@H](Cc1ccccc1)NC(=O)c1ccc(O)cc1)Cc1ccccc1)c1ccccc1 ?
OUT: 302

IN: And the next one, O=C(N[C@H](COC(=O)[C@H](Cc1ccccc1)NC(=O)c1ccc(O)cc1)Cc1ccccc1)c1ccccc1 ?
OUT: 370

IN: And the next one, CC(=O)N[C@H](COC(=O)[C@@H](Cc1ccccc1)NC(=O)c1ccccc1)Cc1ccccc1 ?
OUT: 79.7

IN: And the next one, O=C(N[C@H](COC(=O)[C@@H](Cc1ccccc1)NC(=O)c1ccccc1O)Cc1ccccc1)c1ccccc1 ?
OUT: 77.4

IN: And the next one, O=C(Cc1ccccc1OCc1ccccc1)N[C@@H](Cc1ccccc1)C(=O)OC[C@H](Cc1ccccc1)NC(=O)c1ccccc1 ?
OUT: 223

IN: And the next one, O=C(Cc1ccc(O)cc1)N[C@H](Cc1ccccc1)C(=O)OC[C@H](Cc1ccccc1)NC(=O)c1ccccc1 ?
OUT: 295

IN: And the next one, O=C(Cc1ccccc1OCc1ccccc1)N[C@H](Cc1ccccc1)C(=O)OC[C@@H](Cc1ccccc1)NC(=O)c1ccccc1 ?
OUT: 223

IN: And the next one, O=C(N[C@H](COC(=O)[C@@H](Cc1ccccc1)NC(=O)c1cccc(O)c1)Cc1ccccc1)c1ccccc1 ?
OUT: 2000

IN: And the next one, CC(=O)N[C@@H](Cc1ccccc1)C(=O)OC[C@H](Cc1ccccc1)NC(=O)c1ccccc1 ?
OUT: 560

IN: And the next one, O=C(N[C@H](COC(=O)[C@@H](Cc1ccccc1)NC(=O)c1ccccc1)Cc1ccccc1)c1ccccc1 ?
OUT: 3.21

IN: And the next one, O=C(N[C@H](COC(=O)[C@H](Cc1ccccc1)NC(=O)c1ccccc1)Cc1ccccc1)c1ccccc1 [ASPERPHENAMATE] ?
OUT: 8.85

----------
- Test system: MCF7
- Assay summary: Antiproliferative activity against human MCF7 cells after 3 days by MTT assay
- Type: functional, cell-based
- Settings: MCF7, 72 h
Below is a list of entries, each paired with its recorded IC50 value.
Form entry: value (µM) — number only.

Consider the reported IC50 for these compounds:
{"columns": ["Structure notation", "Measure", "Observed result"],
 "data": [
  ["O=C(N[C@@H](COC(=O)[C@@H](Cc1ccccc1)NC(=O)c1ccccc1OCc1ccccc1)Cc1ccccc1)c1ccccc1", "IC50", 70.3],
  ["O=C(N[C@@H](COC(=O)[C@H](Cc1ccccc1)NC(=O)c1ccccc1O)Cc1ccccc1)c1ccccc1", "IC50", 42.4],
  ["CC(=O)N[C@H](COC(=O)[C@@H](Cc1ccccc1)NC(=O)c1ccccc1)Cc1ccccc1", "IC50", 79.5],
  ["CC(=O)N[C@@H](Cc1ccccc1)C(=O)OC[C@H](Cc1ccccc1)NC(=O)c1ccccc1", "IC50", 88.4],
  ["O=C(N[C@H](COC(=O)[C@@H](Cc1ccccc1)NC(=O)c1cccc(O)c1)Cc1ccccc1)c1ccccc1", "IC50", 42.9],
  ["O=C(Cc1ccc(O)cc1)N[C@H](Cc1ccccc1)C(=O)OC[C@@H](Cc1ccccc1)NC(=O)c1ccccc1", "IC50", 52.5],
  ["O=C(N[C@H](COC(=O)[C@@H](Cc1ccccc1)NC(=O)c1ccccc1O)Cc1ccccc1)c1ccccc1", "IC50", 11.9],
  ["O=C(Cc1ccccc1O)N[C@H](Cc1ccccc1)C(=O)OC[C@@H](Cc1ccccc1)NC(=O)c1ccccc1", "IC50", 18.4],
  ["O=C(Cc1ccccc1OCc1ccccc1)N[C@H](Cc1ccccc1)C(=O)OC[C@H](Cc1ccccc1)NC(=O)c1ccccc1", "IC50", 28.8]
]}

Turning now to a further record.
IN: What measured IC50 is associated with O=C(N[C@@H](COC(=O)[C@H](Cc1ccccc1)NC(=O)c1ccccc1OCc1ccccc1)Cc1ccccc1)c1ccccc1 on MCF7?
OUT: 85.8

----------
- System: MCF7
- Assay summary: Antiproliferative activity against human MCF7 cells after 3 days by MTT assay
- Assay type: functional, cell-based
- Settings: MCF7, 72 h
Measure: IC50 (µM)
Form entry: value (µM) — number only.

Consider the reported IC50 for these compounds:
{"columns": ["Structure notation", "Target", "IC50 (µM)"],
 "data": [
  ["O=C(Cc1ccc(O)cc1)N[C@@H](Cc1ccccc1)C(=O)OC[C@H](Cc1ccccc1)NC(=O)c1ccccc1", "MCF7", 79.6],
  ["CC(=O)N[C@H](Cc1ccccc1)C(=O)OC[C@H](Cc1ccccc1)NC(=O)c1ccccc1", "MCF7", 79.9]
]}

Turning now to a further record.
IN: Give the measured IC50 of O=C(N[C@@H](COC(=O)[C@H](Cc1ccccc1)NC(=O)c1ccc(O)cc1)Cc1ccccc1)c1ccccc1 .
OUT: 59.7

----------
- Assay summary: Thermodynamic solubility of the compound in phosphate buffer at pH 7.4 at 1 mg after 10 mins by HPLC -UV analysis
- Format: physicochemical
- Settings: read-out: Therm_solubility
Below is a list of entries, each paired with its recorded solubility thermodynamic at 10 min value.
Form entry: value (µg/mL) — number only.

Consider the reported solubility thermodynamic at 10 min for these molecules:
{"columns": ["Structure notation", "Units of measure", "solubility thermodynamic at 10 min"],
 "data": [
  ["O=C(Cc1ccccc1OCc1ccccc1)N[C@H](Cc1ccccc1)C(=O)OC[C@H](Cc1ccccc1)NC(=O)c1ccccc1", "µg/mL", 135],
  ["O=C(N[C@H](COC(=O)[C@@H](Cc1ccccc1)NC(=O)c1ccccc1OCc1ccccc1)Cc1ccccc1)c1ccccc1", "µg/mL", 42.6],
  ["O=C(N[C@H](COC(=O)[C@H](Cc1ccccc1)NC(=O)c1ccccc1O)Cc1ccccc1)c1ccccc1", "µg/mL", 18.2],
  ["O=C(N[C@H](COC(=O)[C@H](Cc1ccccc1)NC(=O)c1cccc(O)c1)Cc1ccccc1)c1ccccc1", "µg/mL", 1590],
  ["C[C@H](NC(=O)c1ccccc1)C(=O)OC[C@H](Cc1ccccc1)NC(=O)c1ccccc1", "µg/mL", 329]
]}

IN: Give the measured solubility thermodynamic at 10 min of C[C@@H](NC(=O)c1ccccc1)C(=O)OC[C@H](Cc1ccccc1)NC(=O)c1ccccc1 .
OUT: 192

IN: And the next one, CC(=O)N[C@H](COC(=O)[C@H](Cc1ccccc1)NC(=O)c1ccccc1)Cc1ccccc1 ?
OUT: 485

IN: And the next one, C[C@@H](COC(=O)[C@H](Cc1ccccc1)NC(=O)c1ccccc1)NC(=O)c1ccccc1 ?
OUT: 513

IN: And the next one, C[C@@H](COC(=O)[C@@H](Cc1ccccc1)NC(=O)c1ccccc1)NC(=O)c1ccccc1 ?
OUT: 236

----------
- System: MCF7
- Assay summary: Antiproliferative activity against human MCF7 cells after 3 days by MTT assay
- Assay type: functional, cell-based
- Settings: MCF7, 72 h
Measure: pIC50
By convention, pIC50 is the negative base-10 log of a molar concentration.

Consider the reported pIC50 for these compounds:
{"columns": ["Compound", "pIC50"],
 "data": [
  ["O=C(N[C@@H](COC(=O)[C@@H](Cc1ccccc1)NC(=O)c1ccc(O)cc1)Cc1ccccc1)c1ccccc1", 4.48],
  ["O=C(Cc1ccccc1O)N[C@H](Cc1ccccc1)C(=O)OC[C@H](Cc1ccccc1)NC(=O)c1ccccc1", 4.20],
  ["CC(=O)N[C@H](COC(=O)[C@H](Cc1ccccc1)NC(=O)c1ccccc1)Cc1ccccc1", 4.31],
  ["O=C(N[C@H](COC(=O)[C@H](Cc1ccccc1)NC(=O)c1ccccc1)Cc1ccccc1)c1ccccc1 [ASPERPHENAMATE]", 4.02],
  ["O=C(Cc1ccccc1O)N[C@@H](Cc1ccccc1)C(=O)OC[C@@H](Cc1ccccc1)NC(=O)c1ccccc1", 4.41]
]}

IN: What measured pIC50 is associated with O=C(N[C@H](COC(=O)[C@@H](Cc1ccccc1)NC(=O)c1ccccc1OCc1ccccc1)Cc1ccccc1)c1ccccc1 on MCF7?
OUT: 4.37

IN: And the next one, O=C(N[C@@H](COC(=O)[C@@H](Cc1ccccc1)NC(=O)c1cccc(O)c1)Cc1ccccc1)c1ccccc1 ?
OUT: 4.26

IN: And the next one, O=C(Cc1ccccc1OCc1ccccc1)N[C@H](Cc1ccccc1)C(=O)OC[C@@H](Cc1ccccc1)NC(=O)c1ccccc1 ?
OUT: 5.22
